Molecular target: GST-ATAF1 NAC domain (Arabidopsis thaliana, UniProt Q39013 7-158)
Sequence: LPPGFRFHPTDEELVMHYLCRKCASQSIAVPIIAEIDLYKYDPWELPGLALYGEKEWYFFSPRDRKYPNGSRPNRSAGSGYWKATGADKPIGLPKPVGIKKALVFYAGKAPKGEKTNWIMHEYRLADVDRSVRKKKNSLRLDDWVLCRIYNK
Assay: universal protein binding microarray (PBM); transcription factors of Arabidopsis thaliana; high values mean tight binding
Settings: protein: recombinant; tags: GST; chain copies: 2; dsDNA, one strand shown
experimental.readout: binding signal

Data request: Identify measured binding signal associated with AATTCCGT
Data returned: 0.358 E-score

Data request: Identify measured binding signal associated with AAGTAAGT
Data returned: 0.199 E-score

Data request: Identify measured binding signal associated with AGGGAAAC
Data returned: 0.0887 E-score

Data request: Identify measured binding signal associated with ATGCGTGC
Data returned: 0.21 E-score

Data request: Identify measured binding signal associated with ACACGGCA
Data returned: 0.446 E-score

Data request: Identify measured binding signal associated with ATACGCCA
Data returned: 0.331 E-score

Data request: Identify measured binding signal associated with ACGCCATC
Data returned: 0.0609 E-score

Data request: Identify measured binding signal associated with AATTACGC
Data returned: 0.18 E-score

Data request: Identify measured binding signal associated with AGAGGAAA
Data returned: 0.0666 E-score

Data request: Identify measured binding signal associated with CACGTTTC
Data returned: 0.383 E-score

Data request: Identify measured binding signal associated with GCAAGTAA
Data returned: 0.151 E-score

Data request: Identify measured binding signal associated with GACACGCA
Data returned: 0.304 E-score

Data request: Identify measured binding signal associated with CGCACGCA
Data returned: 0.0589 E-score

Data request: Identify measured binding signal associated with TCACGTAA
Data returned: 0.324 E-score

Data request: Identify measured binding signal associated with ATGCCGTG
Data returned: 0.35 E-score

Data request: Identify measured binding signal associated with TCACGCAA
Data returned: 0.336 E-score

Data request: Identify measured binding signal associated with GAAGGTAA
Data returned: 0.22 E-score

Data request: Identify measured binding signal associated with AGTCAATG
Data returned: 0.0527 E-score

Data request: Identify measured binding signal associated with CGTACACG
Data returned: 0.278 E-score

Data request: Identify measured binding signal associated with AAAGTCAT
Data returned: 0.14 E-score

Data request: Identify measured binding signal associated with GACTTTTA
Data returned: 0.17 E-score

Data request: Identify measured binding signal associated with TTAAGAAA
Data returned: 0.195 E-score

Cited source: paper PMC4081100
